# assayed.target: T1, Human IL2Rγ extracellular domain expressed with a C-terminal myc-myc-hexahistidine tag (human)
# T1 construct: also called hIL-2Rg-MMH; hIL-2RG-MMH
# T1 chain: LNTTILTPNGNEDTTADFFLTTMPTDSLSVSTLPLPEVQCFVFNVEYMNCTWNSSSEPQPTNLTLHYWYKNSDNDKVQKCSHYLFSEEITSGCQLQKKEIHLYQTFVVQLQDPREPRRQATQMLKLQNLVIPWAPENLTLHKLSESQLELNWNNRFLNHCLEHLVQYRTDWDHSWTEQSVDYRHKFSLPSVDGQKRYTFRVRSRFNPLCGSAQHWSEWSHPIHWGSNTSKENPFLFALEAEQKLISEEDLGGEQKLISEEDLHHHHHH
# test.details: SPR Biacore 4000, mAb captured by anti-hFc, HBS-ET, 25C
measurement.name: kon (M⁻¹ s⁻¹)
Return type: number; implicit unit M⁻¹ s⁻¹.

Indicate its recorded kon; the binder in question is H4H13541P (antibody, human IgG4 S228P, kappa, V domains shown, anti-IL2Rγ monoclonal antibody expressed with human IgG4 Fc) VH: EVQLVESGGGVVRPGGSLRLSCAASGFIFDDYDMSWVRQPPGRGLEWVSGIDWFGGTRGYADSMKGRFTISRDNAKNSLYLQMNSLRVEDTAFYYCARGGAIVGAVTPFDYWGQGTLVTVSS VL: DIQMTQSPSSLSASVGNRVTLSCRASQSINTYLSWYQQRPGKAPKLLIYAASSLQSGVPSRFSGSGAGTDFTLTISSLQPEDFATYYCQQSYSAPLTFGGGTKVEIKR
105000

Indicate its recorded kon; the binder in question is H4H12889P (antibody, human IgG4 S228P, kappa, V domains shown, anti-IL2Rγ monoclonal antibody expressed with human IgG4 Fc; also called REGN7257) VH: EVQLVESGGGLVQPGGSLRLSCAASGFIFSSYEMHWVRQAPGKGLEWISYISSSGTTIYYADSVKGRFTISRDNAKNSLYLHMNSLRAEDTAVYYCTRARITGTFDVFDIWGQGTMVTVSS VL: DIQMTQSPSSLSASVGDRVTITCRASQSISSYLNWYQQKPGKAPKLLIFAASNLQSGVPSRFSGSRSGTDFTLTISSLQPEDFATYYCQQNYNIPYTFGQGTKLEIKR
298000

Indicate its recorded kon; the binder in question is H4H12871P (antibody, human IgG4 S228P, kappa, V domains shown, anti-IL2Rγ monoclonal antibody expressed with human IgG4 Fc; also called REGN9434) VH: QVQLQESGPGLVKPSQTLSLTCTVSGGSITSGGYYWSWIRQYPGQGLEWIGYIYYSGKTYYNPSFTSRITISVDTSKKQFSLKMSSVTAADTAVYYCARAGFTSSNGWFDPWGQGTLVTVSS VL: DIQMTQSPSSLSASVGDRVTITCRASQNIRSYLNWYQQKPGKAPKLLIYSASSLQSGVPSRFSGSGSGTDFTLTISSLQPEDFPTYYCQQTYSSPWTFGPGTKVEIKR
199000

Indicate its recorded kon; the binder in question is H4H12884P (antibody, human IgG4 S228P, kappa, V domains shown, anti-IL2Rγ monoclonal antibody expressed with human IgG4 Fc) VH: QVQLQESGPGLVKPSQTLSLTCTVSGGSISSGGYYWSWIRQHPGKGLEWIGFIYYSGKTYYNPSLKSRLTISVDTSKSQFSLKLRSVTAADTAVYYCARLGYTNSAGWFDPWGQGTLVTVSS VL: DIQMTQSPSSLSASVGDRVTITCRASQSISSYLNWYQQKPGKAPNLLIYAASSLQSGVPSRFSGSGSGTDFTLTISSLQPEDLATYYCQQSYTTPFTFGPGTKVDIKR
199000

Indicate its recorded kon; the binder in question is H4H12874P (antibody, human IgG4 S228P, kappa, V domains shown, anti-IL2Rγ monoclonal antibody expressed with human IgG4 Fc) VH: QVQLVESGGGVVQPGRSLRLSCAASGFNFRNFGMHWVRQAPGKGLEWVAGILYDGSSKYYADSVKDRFTISRDNSKNTLFLQMNSLRAEDTAMYYCAKEEDTAMVPFDSWGPGTLVTVSS VL: DIQLTQSPSFLSASVGDRVTITCWASQGISSYLAWYQQKPGKAPTLLIYAASTLQSGVPSRFSGSGSGTEFTLTISSLQPEDFASYYCQQLKSYPLTFGGGTKVEIKR
85200

Indicate its recorded kon; the binder in question is H4H12890P (antibody, human IgG4 S228P, kappa, V domains shown, anti-IL2Rγ monoclonal antibody expressed with human IgG4 Fc) VH: EVQLVESGGGLVQPGGSLRLSCAASGFTFNNYAMHWVRQAPGKGLEYVSSISSSGGSTYYEDSVKGRFTISRDNSKNTLYLQMGSLRAEDMAVYYCARSFYGSGTYYDTFDMWGQGTMVTVSS VL: DIQMTQSPSSLSASIGDRVTITCRASQSISRYLNWYQQKPGKAPKLLIYAASSLQSGVPSRFSASGSGTDFTLTISSLQPEDFATYYCQQSYSTPFTFGQGTKLEIKR
67900

Indicate its recorded kon; the binder in question is H4H12899P (antibody, human IgG4 S228P, kappa, V domains shown, anti-IL2Rγ monoclonal antibody expressed with human IgG4 Fc) VH: QVQLVESGGDLVKPGGSLRLSCATSGFTFSDFYMTWIRQAPGKGLEWISYISNSGSIVKYADSVKGRFTISRDNAKNSLYLQMNSLRAEDTAIYYCARFYGDRWGQGTLVTVSS VL: DIQLTQSPSFLSASVGDRVTITCWASQGISTFLAWYQQKPGKAPKLLIYAASTLQSGVPSRFSGSGSGTDFTLTISSLQPEDFATYHCQQLNNYPWTFGQGTKVEIKR
182000
